Biological target: T1, hGP130-his (Sino Biological, Catalog #10974) (human, UniProt P40189 23-619)
T1 construct: Bought his-tagged cytokine receptor used as SPR analyte; also called human gp130 receptor subunit; IL6 receptor beta subunit; not shown: his tag
T1 sequence: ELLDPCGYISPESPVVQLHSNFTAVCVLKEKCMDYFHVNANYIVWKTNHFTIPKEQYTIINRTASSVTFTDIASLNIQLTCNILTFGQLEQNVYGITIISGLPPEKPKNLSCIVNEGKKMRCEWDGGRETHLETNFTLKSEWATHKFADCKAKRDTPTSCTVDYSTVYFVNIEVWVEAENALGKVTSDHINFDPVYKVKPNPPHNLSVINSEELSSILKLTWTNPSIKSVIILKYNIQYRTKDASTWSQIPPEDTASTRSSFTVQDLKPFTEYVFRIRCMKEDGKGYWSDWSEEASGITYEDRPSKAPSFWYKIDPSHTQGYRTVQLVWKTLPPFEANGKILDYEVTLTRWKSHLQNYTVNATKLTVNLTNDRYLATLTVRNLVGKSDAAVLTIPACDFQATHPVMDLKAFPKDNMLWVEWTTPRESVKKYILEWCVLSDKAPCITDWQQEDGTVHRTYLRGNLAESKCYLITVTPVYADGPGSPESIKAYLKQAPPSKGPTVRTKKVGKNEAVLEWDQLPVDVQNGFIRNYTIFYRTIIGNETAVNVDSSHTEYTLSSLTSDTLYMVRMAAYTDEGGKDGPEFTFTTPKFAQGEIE
Assay: SPR Biacore T200, hgp130 arm
Description: All experiments were conducted in 10 mM Hepes, 150 mMv NaCl, 0.05% (v/v) Polysorbate 20 (PS20) and 3 mMv EDTA (HBS-EP+ buffer) on a Biacore® T200 instrument equipped with a Protein A chip (Cytiva). Mono-Fc VHH ligands were flowed at 5 μl/min for variable time ranging from 18 to 300 seconds, reaching the capture loads listed in the tables below. […]
Under this convention, Criterion met denotes Kd strictly below 40 nM and Criterion not met denotes Kd at or above 40 nM.

Worked examples follow.
BINDER	GROUP
19-DR596 (SEQ ID NO. 237), anti-hGP130 Mono-Fc VHH (Fc fusion, Mono-Fc VHH ligand captured on a Protein A chip; not shown: mono-Fc part) QVQLQESGGGLVQPGGSLRLSCTASGLTFDDSVMGWFRQAPGKGREAVSCISSSGANAFYADSVKGRFTISRDNAKNTLYLQMNSLKPEDTATYYCKRGHACAGYYPIPYDDYWGQGTQVTVSS	Criterion not met
17-DR594 (SEQ ID NO. 235), anti-hGP130 Mono-Fc VHH (Fc fusion, Mono-Fc VHH ligand captured on a Protein A chip; not shown: mono-Fc part) QVQLQESGGGSVQAGGSLRLSCVASASTYCTYDMHWYRQAPGKGREFVSAIDSDGTTRYADSVKGRFTISQGTAKNTVYLQMNSLQPEDTAMYYCKTVCVVGSRWSDYWGQGTQVTVSS	Criterion not met
14-DR591 (SEQ ID NO. 232), anti-hGP130 Mono-Fc VHH (Fc fusion, Tested as Mono-Fc VHH ligand captured on a Protein A chip; not shown: mono-Fc part) QVQLQESGGGSVQAGGSLRLSCTASGAIASGYIDSRWCMAWFRQAPGKEREGVAAIWPGGGLTVYADSVKGRFTISRDHAKNTLYLQMNNLKPEDTAMYYCAAGSPRMCPSLEFGFDYWGQGTQVTVSS	Criterion met
16-DR593 (SEQ ID NO. 234), anti-hGP130 Mono-Fc VHH (Fc fusion, Mono-Fc VHH ligand captured on a Protein A chip; not shown: mono-Fc part) QVQLQESGGGSVQAGGSLRLSCAASGYPYSNGYMGWFRQAPGKEREGVATIYTGDGRTYYADSVKGRFTISRDNAKNTVDLQMSSLKPEDTAMYYCAARAAPLYSSGSPLTRARYNVWGQGTQVTVSS	Criterion not met

Please look at the following binder next.
Just wondering, is Kd of 15-DR592 (SEQ ID NO. 233), anti-hGP130 Mono-Fc VHH (Fc fusion, Mono-Fc VHH ligand captured on a Protein A chip; not shown: mono-Fc part) QVQLQESGGGSVQAGGSLRLSCTAPGFTSNSCGMDWYRQAPGKEREFVSSISTDGTTGYADSVKGRFTISKDKAKDTVYLQMNSLKPEDTGMYSCKTKDGTIATMELCDFGYWGQGTQVTVSS below 40 nM?
Criterion met

src = patent US20240002542A1
